Molecular target: human ETB receptor (Homo sapiens)
Construct: expressed in transfected cells; host or cells: COS7 cells
Sequence (P24530 27-442): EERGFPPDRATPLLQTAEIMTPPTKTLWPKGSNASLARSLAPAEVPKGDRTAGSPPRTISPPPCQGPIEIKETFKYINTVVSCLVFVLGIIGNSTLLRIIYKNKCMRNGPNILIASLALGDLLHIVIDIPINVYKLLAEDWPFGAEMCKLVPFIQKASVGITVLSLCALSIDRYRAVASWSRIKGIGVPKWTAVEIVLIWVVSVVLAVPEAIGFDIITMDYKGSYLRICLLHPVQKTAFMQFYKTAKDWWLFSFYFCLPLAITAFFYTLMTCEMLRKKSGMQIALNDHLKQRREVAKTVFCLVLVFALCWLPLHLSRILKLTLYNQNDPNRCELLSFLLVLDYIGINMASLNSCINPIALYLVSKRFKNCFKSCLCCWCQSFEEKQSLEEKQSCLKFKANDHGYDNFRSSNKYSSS
Assay: Binding Test #2: inhibition of 125I-ET-1 binding to ETB receptors (transfected COS7 cell membranes)
Details: Table 1; incubation at 4° C.; read-out: ETB
Description: Compounds that are potential endothelin antagonists are identified by testing their ability to compete with ^125I-labeled ET-1 for binding to human ETA receptors or ETB receptors present on isolated cell membranes. The effectiveness of the test compound as an antagonist or agonist of the biological tissue response of endothelin can also be assessed by measuring the effect on endothelin induced contraction of isolated rat thoracic aortic rings. […]
pIC50: −log10 of the molar value.
Lab note: anything with pIC50 at or over 5 counts as t; the rest go in f.

Use the examples below as a reference point.
>>> class_assignment("Cc1noc(NS(=O)(=O)c2ccc(-c3ccc(C(C)C)cc3)s2)c1Br")
"t"
>>> class_assignment("Cc1noc(NS(=O)(=O)c2cccs2)c1Br")
"f"
>>> class_assignment("Cc1noc(NS(=O)(=O)c2c(Cc3ccc4c(c3)OCO4)sc3ccccc23)c1Br")
"t"

Determine whether measured pIC50 meets or exceeds 5 for CCc1ccc(NC(=O)c2sccc2S(=O)(=O)Nc2onc(C)c2Br)cc1 t
